- test.system: Neprilysin (Rattus norvegicus)
- Sequence (P07861 whole entry): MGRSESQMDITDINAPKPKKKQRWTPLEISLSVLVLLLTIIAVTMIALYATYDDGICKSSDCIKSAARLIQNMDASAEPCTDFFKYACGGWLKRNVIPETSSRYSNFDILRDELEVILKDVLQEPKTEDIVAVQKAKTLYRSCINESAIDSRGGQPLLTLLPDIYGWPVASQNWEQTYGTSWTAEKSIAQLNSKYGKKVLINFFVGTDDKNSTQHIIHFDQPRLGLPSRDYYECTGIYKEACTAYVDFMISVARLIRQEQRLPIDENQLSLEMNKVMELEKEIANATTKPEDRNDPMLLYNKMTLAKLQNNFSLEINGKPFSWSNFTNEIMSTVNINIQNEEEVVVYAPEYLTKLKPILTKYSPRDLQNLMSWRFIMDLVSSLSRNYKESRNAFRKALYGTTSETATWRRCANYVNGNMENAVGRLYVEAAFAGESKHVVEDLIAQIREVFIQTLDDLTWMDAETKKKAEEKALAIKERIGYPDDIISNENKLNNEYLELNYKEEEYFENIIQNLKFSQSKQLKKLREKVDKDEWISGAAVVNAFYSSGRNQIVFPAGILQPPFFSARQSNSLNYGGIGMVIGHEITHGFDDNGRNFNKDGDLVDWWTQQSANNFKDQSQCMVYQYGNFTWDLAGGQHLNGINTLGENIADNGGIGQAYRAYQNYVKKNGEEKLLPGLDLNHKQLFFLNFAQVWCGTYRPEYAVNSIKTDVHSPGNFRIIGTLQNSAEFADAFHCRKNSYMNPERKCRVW
- protocol.notes: In vitro inhibitory activity against enkephalinase enzyme from rat.
metric: IC50 (µM)

Recorded results for 3 molecules are shown here.
molecule: O=C(Nc1ccc(S(=O)(=O)O)cc1)C(CS)Cc1cccc2ccccc12 (stereo unspecified)
test.system: Neprilysin (Rattus norvegicus)
metric: IC50
observed.result: 0.034
//
molecule: O=C(NCc1ccc(S(=O)(=O)O)cc1)C(CS)Cc1ccccc1 (stereo unspecified)
test.system: Neprilysin (Rattus norvegicus)
metric: IC50
observed.result: 0.011
//
molecule: O=C(NCCS(=O)(=O)[O-])[C@H](CS)Cc1ccccc1.[Na+]
test.system: Neprilysin (Rattus norvegicus)
metric: IC50
observed.result: 0.0044

[a] O=C(NCCS(=O)(=O)O)C(CS)CCCc1ccccc1 (stereo unspecified)
[b] CN(C)c1ccc(CC(CS)C(=O)NCCS(=O)(=O)O)cc1 (stereo unspecified)
[c] CC(C)CC(NC(=O)C(CS)Cc1ccccc1)S(=O)(=O)O (stereo unspecified)
[d] CN(CCS(=O)(=O)O)C(=O)C(CS)Cc1ccccc1 (stereo unspecified)
Number of molecules to sort: 4. Sort criterion: IC50, ascending. Give the labels in the order requested. a, b, c, d
(a: 0.011 µM, b: 0.037 µM, c: 0.25 µM, d: 0.49 µM)

----------
- test.system: Angiotensin-converting enzyme (Oryctolagus cuniculus)
- Sequence (P12822 whole entry): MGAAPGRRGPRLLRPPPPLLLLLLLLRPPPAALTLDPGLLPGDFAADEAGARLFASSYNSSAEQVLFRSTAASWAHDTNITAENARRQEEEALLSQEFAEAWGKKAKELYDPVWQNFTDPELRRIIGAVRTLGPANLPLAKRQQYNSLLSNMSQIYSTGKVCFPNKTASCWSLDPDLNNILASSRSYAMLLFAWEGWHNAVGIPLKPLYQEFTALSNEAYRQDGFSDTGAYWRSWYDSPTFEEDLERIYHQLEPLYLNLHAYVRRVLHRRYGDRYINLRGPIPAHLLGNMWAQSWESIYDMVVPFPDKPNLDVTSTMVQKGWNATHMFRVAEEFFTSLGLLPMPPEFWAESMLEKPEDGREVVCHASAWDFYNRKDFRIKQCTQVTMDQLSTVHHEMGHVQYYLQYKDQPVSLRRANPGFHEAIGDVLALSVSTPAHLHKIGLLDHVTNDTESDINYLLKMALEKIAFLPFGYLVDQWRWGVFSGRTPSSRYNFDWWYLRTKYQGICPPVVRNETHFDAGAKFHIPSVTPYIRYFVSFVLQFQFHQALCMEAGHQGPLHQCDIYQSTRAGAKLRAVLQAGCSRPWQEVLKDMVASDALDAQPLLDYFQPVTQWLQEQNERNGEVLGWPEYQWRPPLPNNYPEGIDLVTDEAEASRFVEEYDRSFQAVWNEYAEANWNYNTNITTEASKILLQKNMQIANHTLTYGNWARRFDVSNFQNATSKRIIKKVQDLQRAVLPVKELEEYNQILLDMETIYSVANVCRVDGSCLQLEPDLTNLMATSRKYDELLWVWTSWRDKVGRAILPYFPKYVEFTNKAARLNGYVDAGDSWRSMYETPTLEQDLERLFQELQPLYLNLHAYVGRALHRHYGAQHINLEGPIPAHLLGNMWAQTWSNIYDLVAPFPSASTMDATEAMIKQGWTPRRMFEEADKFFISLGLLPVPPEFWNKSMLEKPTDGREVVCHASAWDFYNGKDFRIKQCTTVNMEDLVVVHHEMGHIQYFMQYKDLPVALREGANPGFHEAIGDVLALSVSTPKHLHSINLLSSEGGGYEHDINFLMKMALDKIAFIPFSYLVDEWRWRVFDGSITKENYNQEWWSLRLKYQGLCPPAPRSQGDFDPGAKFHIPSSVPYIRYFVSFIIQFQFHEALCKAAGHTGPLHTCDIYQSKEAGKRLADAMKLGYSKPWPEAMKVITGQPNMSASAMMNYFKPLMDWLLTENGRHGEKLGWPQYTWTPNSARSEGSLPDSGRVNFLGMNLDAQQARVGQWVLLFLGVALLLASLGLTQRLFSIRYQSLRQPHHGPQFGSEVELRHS
- protocol.notes: In vitro inhibitory activity against Angiotensin I converting enzyme from rabbit lung
metric: IC50 (µM)

[1] O=C(NCS(=O)(=O)O)C(CS)Cc1ccccc1 (stereo unspecified)
[2] O=C(NCCS(=O)(=O)[O-])[C@@H](CS)Cc1ccccc1.[Na+]
Could you point out whether the larger IC50 belongs to 1 or to 2 ? I would appreciate it if you answered with the label of your choice. 2
(2: 430 µM, 1: 12 µM)

[a] O=C(Nc1cccc(S(=O)(=O)O)c1)C(CS)Cc1ccccc1 (stereo unspecified)
[b] O=C(NCCS(=O)(=O)[O-])C(CS)Cc1ccccc1.[Na+] (stereo unspecified)
Exercise: compare a and b ; which one has the greater IC50? Mark your answer with the label of the selected entry. b

[a] O=C(NCCS(=O)(=O)[O-])[C@H](CS)Cc1ccccc1.[Na+]
[b] O=C(Nc1ccc(S(=O)(=O)O)cc1)C(CS)Cc1ccccc1 (stereo unspecified)
// compare measured IC50, left a , right b , return larger Please identify the chosen entry by its label. a
(a: 740 µM, b: 210 µM)

----------
- test.system: Neprilysin (Rattus norvegicus)
- protocol.notes: In vitro inhibitory activity against enkephalinase enzyme from rat.
metric: IC50 (µM)

Past entries and their recorded results:
compound: O=C(Nc1ccc(S(=O)(=O)O)cc1)C(CS)Cc1noc2ccccc12 (stereo unspecified)
metric: IC50
readout.units: µM
observed.result: 0.012
//
compound: COc1ccc(CC(CS)C(=O)Nc2ccc(S(=O)(=O)O)cc2)cc1 (stereo unspecified)
metric: IC50
readout.units: µM
observed.result: 0.0032
//
compound: O=C(Nc1ccc(S(=O)(=O)O)cc1)C(CS)Cc1cccnc1 (stereo unspecified)
metric: IC50
readout.units: µM
observed.result: 0.033
//
compound: O=C(NCCS(=O)(=O)O)C(CS)Cc1cccc2ccccc12 (stereo unspecified)
metric: IC50
readout.units: µM
observed.result: 0.0084

[a] O=C(Nc1ccc(S(=O)(=O)O)cc1)C(CS)CCCc1ccccc1 (stereo unspecified)
[b] CN(C)c1ccc(CC(CS)C(=O)Nc2ccc(S(=O)(=O)O)cc2)cc1 (stereo unspecified)
Please state the entry with greater IC50 among a and b . Bench note: the answer is the label of the chosen record. a
(a: 0.11 µM, b: 0.014 µM)

----------
- test.system: Neprilysin (Rattus norvegicus, UniProt P07861)
- protocol.notes: In vitro inhibitory activity against enkephalinase enzyme from rat.
metric: IC50 (nM)

A selection of reference data follows.
compound: Cc1ccc(CC(CS)C(=O)NCCS(=O)(=O)O)cc1 (centres undefined)
IC50, nM: 3.1

compound: CC(C)CC(CS)C(=O)Nc1ccc(S(=O)(=O)O)cc1 (centres undefined)
IC50, nM: 0.9

compound: CC(NC(=O)C(CS)Cc1ccccc1)S(=O)(=O)O (centres undefined)
IC50, nM: 31

compound: O=C(NCCS(=O)(=O)O)C(CS)Cc1ccc(F)cc1 (centres undefined)
IC50, nM: 3.5

[1] O=C(NCCCS(=O)(=O)O)C(CS)Cc1ccccc1 (centres undefined)
[2] O=C(Nc1ccc(S(=O)(=O)O)cc1)C(CS)Cc1ccc(-c2ccccc2)cc1 (centres undefined)
Which record would sort first by descending IC50, 1 or 2 ? Respond with the label that goes with your answer. 2
(2: 52 nM, 1: 5.4 nM)

[I] O=C(Nc1ccccc1S(=O)(=O)O)C(CS)Cc1ccccc1 (centres undefined)
[II] O=C(C(CS)Cc1ccccc1)N(CCS(=O)(=O)O)C1CC1 (centres undefined)
[III] O=C(NCCS(=O)(=O)[O-])[C@@H](CS)Cc1ccccc1.[Na+]
// sort entries: IC50, high to low Please list each label once, in the requested order. II, I, III
(II: 4200 nM, I: 140 nM, III: 0.82 nM)

[A] Cc1ccc(CC(CS)C(=O)Nc2cccc(S(=O)(=O)O)c2)cc1 (centres undefined)
[B] O=C(Nc1ccc(S(=O)(=O)O)cc1)C(CS)Cc1ccccc1 (centres undefined)
[C] O=C(Nc1ccc(S(=O)(=O)O)cc1)C(CS)Cc1ccc(C(F)(F)F)cc1 (centres undefined)
[D] Cc1ccc(CC(CS)C(=O)Nc2ccc(S(=O)(=O)O)cc2)cc1 (centres undefined)
Ordering: ascending IC50. Form entry: ranked labels (order as requested). D, B, A, C

Source listed as ChEMBL document CHEMBL1126159.
